biological target: UniProtKB P35348; assay: Intracellular calcium mobilization assay, α1A-AR
Sequence (P35348 whole entry): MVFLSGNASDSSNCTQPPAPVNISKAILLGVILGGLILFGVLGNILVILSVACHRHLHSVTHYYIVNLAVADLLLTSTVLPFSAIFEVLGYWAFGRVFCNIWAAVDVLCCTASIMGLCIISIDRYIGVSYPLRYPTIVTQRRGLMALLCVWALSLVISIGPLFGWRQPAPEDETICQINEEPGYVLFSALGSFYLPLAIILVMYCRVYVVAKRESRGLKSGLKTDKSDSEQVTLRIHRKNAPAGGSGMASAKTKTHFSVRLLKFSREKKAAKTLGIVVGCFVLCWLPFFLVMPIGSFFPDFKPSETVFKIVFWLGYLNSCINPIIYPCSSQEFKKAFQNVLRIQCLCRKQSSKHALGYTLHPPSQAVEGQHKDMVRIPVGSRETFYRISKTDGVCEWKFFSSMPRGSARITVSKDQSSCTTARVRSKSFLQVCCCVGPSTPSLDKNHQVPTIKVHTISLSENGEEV
measurement type: EC50 (nM)
Answers are plain numbers, in nM.

q: Fill blank: measured EC50 of the compound N=C(N)Nc1ccc2[nH]c3c(c2c1)C[C@@]1(O)[C@H]2Cc4ccc(O)c5c4[C@@]1(CCN2CC1CC1)[C@H]3O5 is ____.
a: 41

###

target: σ1 (Rattus norvegicus); assay: Radioligand displacement, σ1; assay type: binding; conditions: binding curve File S1; Sigma-1 Receptor; [3H]Pentazocine (3.0 nM); Sigma Binding Buffer; read-out: Ki
Sequence (Q9R0C9 whole entry): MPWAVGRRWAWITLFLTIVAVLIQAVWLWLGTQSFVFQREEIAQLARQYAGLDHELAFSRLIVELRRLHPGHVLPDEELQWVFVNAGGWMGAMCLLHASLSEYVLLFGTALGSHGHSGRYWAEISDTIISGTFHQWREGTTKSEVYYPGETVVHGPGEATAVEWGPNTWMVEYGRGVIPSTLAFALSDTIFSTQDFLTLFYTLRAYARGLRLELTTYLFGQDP
measurement type: Ki (nM)
Give bare numbers, in nM.

q: Record request: Ki value, item CC(C)[C@@H](CN1CC[C@@](C)(c2cccc(O)c2)[C@@H](C)C1)NC(=O)[C@H]1Cc2ccc(O)cc2CN1 [JDTic]
a: 1880

The measured values listed here are drawn from paper PMC3747596.
